The measured values listed here are drawn from PubChem BioAssay AID256.

tested on: CD2F1 mice, L1210 leukemia ip, survival T/C; assay: NCI In Vivo Anticancer Drug Screen. Data for tumor model L1210 Leukemia (intraperitoneal) in CD2F1 (CDF1) mice; conditions: endpoint: mean survival time; dose: 37.5 mg/kg/injection; schedule: Q01DX009 (ip); vehicle: saline; higher = longer survival
Inconclusive results and toxic doses are left out.
OBSERVED PROPERTY: T/C

>>> recorded_measurement("CCCCCCCCCCCCCCOS(=O)(=O)O")
"93 % of control"
>>> recorded_measurement("NCCSC1(O)C(=O)c2ccccc2-c2ccccc21 (centres undefined)")
"100 % of control"
>>> recorded_measurement("CC1CCC(C(C)C)C(NCCO)C1 (centres undefined)")
"97 % of control"
>>> recorded_measurement("NNC(=O)Nc1cccnc1")
"98 % of control"

====

tested on: CD2F1 mice, L1210 leukemia ip, survival T/C; assay: NCI In Vivo Anticancer Drug Screen. Data for tumor model L1210 Leukemia (intraperitoneal) in CD2F1 (CDF1) mice; settings: endpoint: mean survival time; dose: 200.0 mg/kg/injection; schedule: Q04DX003 (ip); vehicle: saline
Inconclusive results and toxic doses are left out. How the source made its calls: active means survival T/C of 150% or more; inactive means T/C below 125% in these data.
Outcomes: T for active, F for inactive

>>> class_name("Cc1ccc(C(C)C)c(OCC2=NCCN2C)c1")
"F"
>>> class_name("CN(C)P1(N)=NP(N)(N(C)C)=NP(N)(N(C)C)=N1 (stereo not drawn)")
"F"
>>> class_name("NS(=O)(=O)c1cccc([As](=O)(O)O)c1")
"F"
>>> class_name("Cc1cccc(-n2cc(C#N)c3c(C)cc(C)nc32)c1")
"F"
>>> class_name("CC(=O)NC(C)C1(O)CCCCC1 (stereo not drawn)")
"F"
>>> class_name("CC(=O)NCCNC(C)=O")
"F"
>>> class_name("CN(CCN1CCCC1)C(=O)C(O)(c1ccccc1)c1ccccc1")
"F"
>>> class_name("O=P1(N(CCCl)CCCl)NCCCO1 (stereo not drawn)")
"T"
>>> class_name("CC(=O)OC1C(OC(C)=O)C2C(C)(C)CCCC2(C)C2Cc3occc3C(C)C12 (stereo not drawn)")
"F"
>>> class_name("Nc1nc(=O)n(C2OC(CO)C(O)C2O)c(=O)[nH]1 (stereo not drawn)")
"F"
>>> class_name("NS(=O)(=O)c1ccc(N=Nc2ccc([As](=O)(O)O)cc2)cc1")
"F"
>>> class_name("CC(C)(Cl)[N+](=O)[O-]")
"F"
>>> class_name("CC1CC([O-])=N/[N+]1=C\\c1ccccc1 (stereo not drawn)")
"F"

====

system: CD2F1 mice, L1210 leukemia ip, survival T/C; experiment: NCI In Vivo Anticancer Drug Screen. Data for tumor model L1210 Leukemia (intraperitoneal) in CD2F1 (CDF1) mice; conditions: endpoint: mean survival time; dose: 100.0 mg/kg/injection; schedule: Q01DX009 (ip); vehicle: saline with Tween-80; higher = longer survival
Toxic doses and inconclusive results are not listed.
OBSERVED PROPERTY: T/C

>>> recorded_measurement("Oc1c(C(c2ccccc2)N2CCCCC2)ccc2ccccc12 (stereo not drawn)")
"101 % of control"
>>> recorded_measurement("CCCCCCNC(=O)Nc1cccc(Cl)c1C")
"94 % of control"
>>> recorded_measurement("CC(=O)CC(O)(C(F)(F)F)C(F)(F)F")
"102 % of control"
>>> recorded_measurement("O=C(O)CSc1ccn(Cc2ccccc2)c1")
"94 % of control"
>>> recorded_measurement("Cc1cc(O)c(N=Nc2ccc(Br)cc2)cc1C")
"93 % of control"
>>> recorded_measurement("CC(=O)NC(C(=O)O)=C(C)C")
"96 % of control"
>>> recorded_measurement("COc1cc(Cl)ccc1NC(=O)Oc1ccc([N+](=O)[O-])cc1")
"96 % of control"
>>> recorded_measurement("CC(=O)C1=C(C)NC(C)=C(C(C)=O)C1C")
"100 % of control"
>>> recorded_measurement("NC(=O)C1=C2CCCc3cccc(c32)C1=O")
"94 % of control"
>>> recorded_measurement("CCCCNC(=O)Nc1ccc(C(=O)OCCCC)cc1")
"87 % of control"
>>> recorded_measurement("COc1ccc(-c2nc3ccc(C)cc3c(=O)o2)cc1")
"93 % of control"
>>> recorded_measurement("O=C=Nc1ccc(N=Nc2ccccc2)cc1")
"98 % of control"
>>> recorded_measurement("Cc1ccccc1CS")
"93 % of control"
>>> recorded_measurement("O=C1C=C(c2ccccc2)C(O)(c2ccccc2)C1 (stereo not drawn)")
"104 % of control"
>>> recorded_measurement("O=C(O)C1CC(Br)C(Br)CC1C(=O)O (stereo not drawn)")
"95 % of control"
>>> recorded_measurement("O=CNc1ccc([N+](=O)[O-])cc1")
"101 % of control"
>>> recorded_measurement("Clc1ccc(CN2CN(Cc3ccc(Cl)cc3)CN(Cc3ccc(Cl)cc3)C2)cc1")
"95 % of control"
>>> recorded_measurement("O=C1c2ccccc2C(=O)N1C1C=CC=CC=C1")
"95 % of control"
>>> recorded_measurement("CCCCCCCC(=O)Nc1cc(C)ccc1C")
"94 % of control"
>>> recorded_measurement("O=C(O)c1cccc2c1-c1ccccc1C(Br)C2Br (stereo not drawn)")
"89 % of control"
>>> recorded_measurement("CCCCCCCCCCCCCCCCCCOCCCCCCCCCCCCCCCCCC")
"102 % of control"
>>> recorded_measurement("Nc1cc(Cl)ccc1C(=O)O")
"103 % of control"
>>> recorded_measurement("Cc1ccc2nc(-c3ccc(NC(=O)Nc4cccc(F)c4)cc3)sc2c1")
"97 % of control"
>>> recorded_measurement("CCCCCCCN(CCCCCCC)CC(O)c1cc2ccc(Br)cc2c2cccnc12 (stereo not drawn)")
"95 % of control"
>>> recorded_measurement("O=C(O)CCc1cccnc1")
"95 % of control"
>>> recorded_measurement("Cc1ccc(C2=NNc3n[nH]c(=S)n3N2)cc1")
"101 % of control"
>>> recorded_measurement("Nc1ccc2ccccc2c1S(=O)(=O)O")
"102 % of control"
>>> recorded_measurement("O=C(O)/C(=C/c1ccc(O)cc1)c1ccccc1")
"88 % of control"
>>> recorded_measurement("Nc1ccc2[nH]c(-c3ccc(S(=O)(=O)F)cc3)cc(=O)c2c1")
"102 % of control"
>>> recorded_measurement("CCCCCC(C)C(C)=O (stereo not drawn)")
"101 % of control"
>>> recorded_measurement("O=C(CCCN1CCC(O)CC1)c1ccccc1")
"94 % of control"
>>> recorded_measurement("NCCCOS(=O)(=O)O")
"96 % of control"
>>> recorded_measurement("NC(=O)/C=C/C(N)=O")
"98 % of control"
>>> recorded_measurement("CCOC(=O)c1ccc(OCC(=O)Nc2ccccc2)cc1")
"97 % of control"
>>> recorded_measurement("CC(=O)Nc1cc(/C=C/c2ccccc2)ccc1S(=O)(=O)c1ccc(/C=C/c2ccccc2)cc1NC(C)=O")
"93 % of control"
>>> recorded_measurement("COC(C)C(O)(c1ccccc1)c1ccccc1 (stereo not drawn)")
"101 % of control"
>>> recorded_measurement("Cc1cc(Cl)ccc1NC(=O)Nc1ccccc1C(N)=O")
"95 % of control"
>>> recorded_measurement("CC(C)CN(CC(C)C)c1ccc([N+](=O)[O-])cc1[N+](=O)[O-]")
"97 % of control"
>>> recorded_measurement("COc1ccc(NC(=O)Oc2ccc(SC)c(C)c2)cc1")
"89 % of control"
>>> recorded_measurement("C1=CC2CC3(OCCO3)C2C1 (stereo not drawn)")
"98 % of control"
>>> recorded_measurement("CCOc1ccc(N2C(=O)CSC2=S)cc1")
"87 % of control"
>>> recorded_measurement("CCCCC(CC)C(=O)N1CCOCC1 (stereo not drawn)")
"96 % of control"
>>> recorded_measurement("N#CCCC(CCC#N)c1ccccc1")
"107 % of control"
>>> recorded_measurement("C=C1C[C@@H](O)[C@H](O)[C@@]2(C)C[C@@H]3OC(=O)C(=C)[C@@H]3C[C@H]12")
"102 % of control"
>>> recorded_measurement("CCOC(=O)C(=CN1CCCCC1)C(=O)OCC")
"92 % of control"
>>> recorded_measurement("COc1ccc(C2=N/C(=C\\c3ccccc3)C(=O)O2)cc1")
"96 % of control"
>>> recorded_measurement("COc1cc(OC)c(NC(=O)N2CCN(C)CC2)cc1Cl")
"94 % of control"
>>> recorded_measurement("CCc1ncc(C(C)(O)c2ccc(C)cc2)n1Cc1ccccc1 (stereo not drawn)")
"92 % of control"
>>> recorded_measurement("C(=N\\Nc1ccccc1)/c1ccc2c(c1)OCO2")
"97 % of control"
>>> recorded_measurement("Cc1ccc([N+](=O)[O-])cc1NC(=O)Oc1ccc(Cl)cc1Cl")
"103 % of control"
>>> recorded_measurement("O=C(O[Si](Cc1ccccc1)(Cc1ccccc1)Cc1ccccc1)N(CCCl)CCCl")
"123 % of control"
>>> recorded_measurement("CCOc1ccc(OCC)c(NC(=O)c2ccccc2)c1")
"98 % of control"
>>> recorded_measurement("O=C1C=C(NS(=O)(=O)c2ccccc2)C(=O)c2ccccc21")
"101 % of control"
